# method-summary: forskolin-driven CRE-LacZ activity in PC12 – cell-based, CRE-LacZ reporter, forskolin-stimulated, primary screen (AID 1146);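 also: PC12 cells with 6xCRE LacZ reporter stimulated by forskolin 10 µM; beta-galactosidase reporter signal reflecting CREB driven transcription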
# particulars: luminescence, 4.5 h, higher = more signal, called active from +8 up or from −8 down

molecule: C=C(CCCC)C(=O)CC[C@H](OC(C)=O)c1ccc(CO)o1
z-score: -0.79
//
molecule: Cc1ccccc1/C=C/C=O
z-score: 0.834
//
molecule: C=CCC(OC(C)=O)[C@@H]1[C@@H](N(Cc2cc3ccccc3o2)C(=O)c2ccc(C)cc2)c2cc(OCCCO)ccc2N1C(=O)c1ccc(-c2ccccc2)cc1 (some centres not stated)
z-score: -1.12
//
molecule: COCCOC(=O)N1C(=O)[C@@]2(c3cc(C#CCC(C(=O)OC)C(=O)OC)ccc31)[C@H](c1ccc(OCCO)cc1)N1[C@H](c3ccccc3)[C@H](c3ccccc3)OC(=O)[C@H]1[C@@H]2C(=O)NC[C@H](O)c1ccccc1
z-score: -0.526
//
molecule: CC(c1ccccc1)C(O)C1C=CC2C(=O)N(c3ccccc3)C(=O)C2N1Nc1ccccc1F (configuration not stated)
z-score: 0.406
//
molecule: CCOC(=O)C1=C[C@@H](C(C)(C)C)N(S(=O)(=O)c2ccc(C)cc2)[C@H]1c1ccc(Cl)c(Cl)c1
z-score: 0.303
//
molecule: COCCOC(=O)N1C(=O)[C@@]2(c3ccccc31)[C@H](C(=O)N1CCCCCCC1)[C@H]1C(=O)O[C@H](c3ccccc3)[C@H](c3ccccc3)N1[C@@H]2c1ccccc1OCCO
z-score: 0.207
//
molecule: CCCCCCCCCCC(O)C1C=CC2C(=O)N(c3ccccc3)C(=O)C2N1Nc1ccc([N+](=O)[O-])cc1 (configuration not stated)
z-score: 0.925
//
molecule: CN1C(=O)C2C=CC(C(O)C3=C[C@H]4C[C@@H](C3)C4(C)C)N(Nc3ccc([N+](=O)[O-])cc3[N+](=O)[O-])C2C1=O (some centres not stated)
z-score: -0.946
//
molecule: COCC1C2CC[C@H]3C(OCc4ccc(F)cc4C(F)(F)F)OC[C@]4(C)[C@H]3C2=C(CN4C(=O)OC(C)(C)C)[C@H](C)C1COC (some centres not stated)
z-score: 0.172
//
molecule: O=c1cccc(-c2ccccc2)o1
z-score: 0.137
//
molecule: COCCOC(=O)N1C(=O)[C@@]2(c3cc(C#CCCO)ccc31)[C@H](c1ccc(O)cc1)N1[C@H](c3ccccc3)[C@H](c3ccccc3)OC(=O)[C@H]1[C@@H]2C(=O)N1CCCCCCC1
z-score: -0.268
//
molecule: COc1ccc([Si](C)(C)[C@H]2[C@H](CC(=O)N3Cc4ccccc4C[C@H]3CO)O[C@@]3(C(=O)N(Cc4cccc(I)c4)c4ccccc43)[C@@H]2C)cc1
z-score: -0.919
//
molecule: [N-]=[N+]=NCc1ccccc1C[C@]1(C(N)=O)N=C(c2ccc(OCCCO)cc2)O[C@H]1c1ccccc1N=[N+]=[N-]
z-score: 0.248
//
molecule: O=C1O[C@H](c2ccccc2)[C@H](c2ccccc2)N2[C@H]1[C@@H](C(=O)NC[C@H](O)c1ccccc1)[C@]1(C(=O)Nc3ccc(C#CC4(O)CCCCCC4)cc31)[C@H]2c1ccccc1OCCO
z-score: -0.349
//
molecule: CN1C(=O)C2C=CC(C(O)c3ccccc3)N(NC(=O)OC(C)(C)C)C2C1=O (configuration not stated)
z-score: 0.955
//
molecule: COc1c(C)cc(-c2cc3c(c(-c4ccccc4)n2)[Si](C(C)C)(C(C)C)O[C@H]3c2ccccc2)cc1C
z-score: -0.0226
//
molecule: COCCOC(=O)N1C(=O)[C@@]2(c3cc(C#Cc4ccc(OC)cc4)ccc31)[C@H](c1ccc(O)cc1)N1[C@H](c3ccccc3)[C@H](c3ccccc3)OC(=O)[C@H]1[C@@H]2C(=O)N1CCN(c2ncccn2)CC1
z-score: 0.75
//
molecule: C=C(CCCC)/C(=C/C[C@H](OC(C)=O)c1ccc(CO)o1)c1cc(C(=O)OC)ccc1OC
z-score: 0.0467
//
molecule: NC(=O)[C@@]1(CCS(=O)(=O)c2ccccc2)N=C(c2ccc(OCCCO)cc2)O[C@H]1c1ccccc1
z-score: -1.38
//
molecule: [N-]=[N+]=Nc1ccccc1C[C@]1(C(=O)N2CCCCC2)N=C(c2ccc(OCCCO)cc2)O[C@H]1c1ccccc1N=[N+]=[N-]
z-score: -1.69
//
molecule: CCN(CC)c1ccc(N2CC=CC34O[C@@H]5/C=C\CCC(C)OC(=O)C5[C@H]3C(=O)N(CCCCCCO)[C@@H]4C2=O)cc1 (some centres not stated)
z-score: 0.57
